system: EKVX (NSC lung cancer); test: NCI-60 screen (SRB, 48 h); conditions: Homo sapiens, 48 h, read-out: TGI
OBSERVATION_TYPE: IC (TGI) (µM)
Lab book: enter the figure in µM, no units written.

1) C=C(C)[C@@H]1CC[C@]2(C)[C@H](CC=C3[C@@H]4[C@@H](C)[C@H](C)CC[C@]4(CO)CC[C@]32C)[C@@]1(C)CCCN | 2.94
2) C[C@H]1[C@H](C)CC[C@]2(CO)CC[C@]3(C)C(=CC[C@@H]4[C@@]5(C)CCCNC(C)(C)[C@@H]5CC[C@]43C)[C@H]12 | 3.29
3) C=C(C)[C@@H]1CC[C@]2(COS(=O)(=O)c3ccc(C)cc3)CC[C@]3(C)[C@@H](CC[C@@H]4[C@@]5(C)CCCNC(C)(C)[C@@H]5CC[C@]43C)[C@@H]12 | 3.11
4) C=C(C)[C@@H]1CC[C@]2(C(=O)N[C@H](CO)Cc3ccccc3)CC[C@]3(C)[C@H](CC[C@@H]4[C@@]5(C)CCCNC(C)(C)[C@@H]5CC[C@]43C)[C@@H]12 | 3.49

The recorded IC (TGI) for entry CC1(C)CC[C@]23CC[C@]4(C)[C@H](CC[C@@H]5[C@@]6(C)CCCNC(C)(C)[C@@H]6CC[C@]54C)[C@H]2[C@H]1OC3 equals 3.37

* * *

system: HOP-62 (NSC lung cancer); assay: NCI-60 screen (SRB, 48 h); settings: Homo sapiens, HOP-62
OBSERVATION_TYPE: GI50

Reference set (6 entries):
1. CC1(C)NCCC[C@]2(C)[C@H]3C=CC4=C5C[C@@](C)(CO)CC[C@]5(C)CC[C@@]4(C)[C@]3(C)CC[C@@H]12 | 2.3 µM
2. C=C(C)[C@@H]1CCC=C2CC[C@]3(C)[C@H](CC[C@@H]4[C@@]5(C)CCCNC(C)(C)[C@@H]5CC[C@]43C)[C@H]21 | 1.82 µM
3. CC1(C)CC[C@]2(CO)CC[C@]3(C)C(=CC[C@@H]4[C@@]5(C)CCCNC(C)(C)[C@@H]5CC[C@]43C)[C@@H]2C1 | 5.89 µM
4. C[C@H]1[C@H](C)CC[C@]2(CO)CC[C@]3(C)C(=CC[C@@H]4[C@@]5(C)CCCNC(C)(C)[C@@H]5CC[C@]43C)[C@H]12 | 1.81 µM
5. CC(C)=C1CCC=C2CC[C@]3(C)[C@H](CC[C@@H]4[C@@]5(C)CCCNC(C)(C)[C@@H]5CC[C@]43C)[C@H]21 | 1.7 µM
6. C=C(C)[C@@H]1CC[C@]2(COS(=O)(=O)c3ccc(C)cc3)CC[C@]3(C)[C@@H](CC[C@@H]4[C@@]5(C)CCCNC(C)(C)[C@@H]5CC[C@]43C)[C@@H]12 | 1.65 µM

Readout GI50 for C=C(C)[C@@H]1CC[C@]2(C)[C@H](C=CC3=C4C[C@@](C)(CO)CC[C@]4(C)CC[C@]32C)[C@@]1(C)CCCN , test system HOP-62 (NSC lung cancer), was 1.98 µM

Readout GI50 for C=C(C)C1CCC2(CO)CCC3(C)C(CCC4C5(C)CCCNC(C)(C)C5CCC43C)C12 (centres unmarked) , test system HOP-62 (NSC lung cancer), was 1.81 µM

# credit: paper PMC7914897
